# APPLIED CONDITIONS: in PEG-400, 303.2 K
ENDPOINT LABEL: solubility (mole fraction)

CCN(CC)CCNC(=O)c1c(C)[nH]c(/C=C2\C(=O)Nc3ccc(F)cc32)c1C.O=C(O)C[C@H](O)C(=O)O | 0.0076

###

# APPLIED CONDITIONS: in transcutol, 313.2 K
ENDPOINT LABEL: solubility (mole fraction)

CCN(CC)CCNC(=O)c1c(C)[nH]c(/C=C2\C(=O)Nc3ccc(F)cc32)c1C.O=C(O)C[C@H](O)C(=O)O | 0.0163

###

# APPLIED CONDITIONS: in ethylene glycol, 313.2 K
ENDPOINT LABEL: solubility (mole fraction)

CCN(CC)CCNC(=O)c1c(C)[nH]c(/C=C2\C(=O)Nc3ccc(F)cc32)c1C.O=C(O)C[C@H](O)C(=O)O | 0.00244
